Cited source: patent US20260028391A1

Biological target: T1, RSV F B, B Ref (RSV B)
T1 construct: whole, on cells
Assay: FACS, % binding to RSV F B variants
Measure Name: % binding

binder="MPK176-v1.3 (antibody, V domains shown) VH: QVQLVQSGAEVKKPGASVRVSCKASGYTLTAYGISWVRQAPGQGLEWMGWISPKHGNTHYAQRFQGRVTMTTDTSTSTAYMELRSLRPDDTAVYFCAREGVDIMAVPWYFDYWGQGTLVAVSS VL: SYVLTQPPSVSVAPGQTARISCGGNNIGSKSVHWYQQKPGQAPVVVVYDDSKRPSGIPERFSGSNSGNTATLTISGVEAGDEADYFCQVWDSATDHWVFGGGTKLTVL" result_value=39.9%

Now consider a different binder.
# binder MPK65-v2-v3.1 (antibody, V domains shown) VH: QVPLVQSGAEVKKPGESLKISCKGSGYSFISYWIGWVRQMPGKGLEWMGVIYPFDADTKYSPSFQGHVTISADKSSNTAYVQWSSLKASDTAMYYCARFTFGIAVVTDDVSGEGQAFEIWGQGTMVTVSS VL: EIVMMQSPATLSVSPGERATLSCRASQSVAGNLAWYQQRPGQAPRLLIYGASTRATGVPARFSGSGSETEFTLTISSLQSEDFAVYYCHQYSNWPQAFGQGTRLDIK ; its % binding = 60.1%
